I'd be grateful if you could share measured Enzyme degradation CDK2 (% remaining) @ 0.1 μM for these entries.
Biological target: CDK2 (Homo sapiens, UniProt P24941)
Construct: endogenous in cells; host or cells: MDA-MB-231
Test: CDK protein degradation activity (Western blotting), CDK2
Type: cell-based
Details: MDA-MB-231 cells, 0.1 μM, 16 hours, Western blot
Method: In order to evaluate the CDK protein degradation activity of the compounds according to the present invention, the following experiment was conducted. MDA-MB-231 cells were seeded at 5×10^5 cells per well in a 6-well plate. The next day, the compounds were treated in each well to achieve final concentrations of 100 nM, 1 μM, and 10 μM. […] Cell lysates were quantified and separated by size using sodium dodecyl sulfate-polyacrylamide gel electrophoresis (SDS-PAGE). […]
Numeric only. Scale: %

# Enzyme degradation CDK2 (% remaining) @ 0.1 μM lookup, item Cc1cccc(C(=O)NC2CC(n3cnc4c(NCCCN5CCN(CC6CCN(C(=O)CNc7ccc8c(c7)C(=O)N([C@@H]7CCC(=O)NC7=O)C8=O)CC6)CC5)ncnc43)C2)n1 (stereo partly drawn)
30

# Enzyme degradation CDK2 (% remaining) @ 0.1 μM lookup, item Cc1cccc(C(=O)NC2CC(n3cnc4c(NCc5cccc(N6CCN(c7cccc8c7C(=O)N([C@H]7CCC(=O)NC7=O)C8=O)CC6)c5)ncnc43)C2)n1 (stereo partly drawn)
80
